TEST: compounds altering in vitro BBB leakiness – cell-based, FITC-avidin fluorescence, HTS, primary screen (AID 1963498); also: test concentration not given here
CONDITIONS_USED: brain endothelial barrier, actives lie on both sides
Please use 1 (yes) whenever fold change permeability is not below 0.9, and 0 (no) whenever it is.

Worked examples follow.
CC(O)C(O)[C@H]1CNc2nc(N)[nH]c(=O)c2N1 (stereo partly drawn)	1 (yes)
O=C(c1ccc(F)cc1)C1CCN(CCn2c(=O)[nH]c3ccccc3c2=O)CC1	1 (yes)
COc1ccccc1N1CCN(CC(O)COc2cccc3ccccc23)CC1 (stereo not drawn)	0 (no)
C1CCc2nnnn2CC1	1 (yes)
c1cnc2c(c1)ccc1cccnc12	1 (yes)
N[C@@H](CCC(=O)N[C@@H](CSN=O)C(=O)NCC(=O)O)C(=O)O	0 (no)

Q: State whether the measured fold change permeability reaches 0.9, counting equality as reaching it, for O=c1[nH]c(=O)n([C@H]2C[C@H](O)[C@@H](CO)O2)cc1Br
Result: 1 (yes)

Q: Form field: fold change permeability at least 0.9? Entry: CCN(Cc1ccncc1)C(=O)C(CO)c1ccccc1 (stereo not drawn)
Result: 1 (yes)

Q: Could you tell me if the measured fold change permeability of COc1cc(CC(=O)O)ccc1O reaches 0.9 or more?
Result: 1 (yes)

Q: Evaluate Cc1c(OCC(F)(F)F)ccnc1CS(=O)c1nc2ccccc2[nH]1 (stereo not drawn) : fold change permeability at minimum 0.9?
Result: 1 (yes)

Q: Check the entry N[C@H](CO)C(=O)O : does fold change permeability equal or exceed 0.9?
Result: 0 (no)

* * *

TEST: compounds altering in vitro BBB leakiness – cell-based, FITC-avidin fluorescence, HTS, primary screen (AID 1963498); also: test concentration not given here
CONDITIONS_USED: brain endothelial barrier, actives lie on both sides
Calls of active or inactive are those of the source. No stated cut-off is given here; in the data, active means fold change permeability below about 0.7 or above about 1.3; inactive means in between.
Log the outcome using a class from true (1) (active), false (0) (inactive)

O=C(O)/C=C/c1cnc[nH]1	true (1)
CC(CN(C)C)CN1c2ccccc2CCc2ccccc21 (stereo unspecified)	true (1)
CN[C@H](CC(C)C)C(=O)N[C@H]1C(=O)N[C@@H](CC(N)=O)C(=O)N[C@H]2C(=O)N[C@H]3C(=O)N[C@H](C(=O)N[C@H](C(=O)O)c4cc(O)cc(O)c4-c4cc3ccc4O)[C@H](O)c3ccc(c(Cl)c3)Oc3cc2cc(c3O[C@@H]2O[C@H](CO)[C@@H](O)[C@H](O)[C@H]2O[C@H]2C[C@](C)(N)[C@H](O)[C@H](C)O2)Oc2ccc(cc2Cl)[C@H]1O	true (1)

Q: Which outcome was entered for the compound COc1ccc2[nH]cc(CCNC(C)=O)c2c1 in this test?
Result: false (0)

Q: Test call for this compound, please: Cc1nc2c(OCc3ccccc3)cccn2c1CC#N
Result: false (0)

Q: Please indicate how the test categorized CC(=O)N[C@H](C(=O)O)C(C)(C)SN=O .
Result: false (0)

* * *

fold change permeability by entry:
TEST: compounds altering in vitro BBB leakiness – cell-based, FITC-avidin fluorescence, HTS, primary screen (AID 1963498); also: test concentration not given here
CONDITIONS_USED: brain endothelial barrier, actives lie on both sides
Reply with the value as a number alone.

OC[C@H]1O[C@@H](n2cnc3c(N[C@H]4CCC[C@@H]4O)ncnc32)[C@H](O)[C@@H]1O	1
C(=C\c1ccccc1)/CN1CCN(C(c2ccccc2)c2ccccc2)CC1	1.2
NCCc1cnc[nH]1	1.3

Q: Answer with reported fold change permeability of Cc1nc2ccccn2c(=O)c1CCN1CCC(C(=O)c2ccc(F)cc2)CC1
Result: 1.1

Q: Determine from records and report fold change permeability for CSC(N)=NCCC[C@H](N)C(=O)O
Result: 0.7

Q: Give a short answer stating reported fold change permeability for N[C@@H](C(=O)N[C@@H]1C(=O)N2C(C(=O)O)=C(Cl)CS[C@H]12)c1ccccc1 .
Result: 0.9

Q: Let me know recorded fold change permeability for CC(C)NCC(O)COc1ccc(COCCOC(C)C)cc1 (stereo unspecified) , thanks.
Result: 0.8

Q: Identify measured fold change permeability corresponding to O=Nc1c(-c2c(O)[nH]c3cc(Br)ccc23)[nH]c2ccccc12
Result: 1.2

Q: Quote fold change permeability reported for COc1cc(N2CCN(C)CC2)ccc1Nc1nccc(-c2cn(C)c3cnccc23)n1 please.
Result: 1.2

Q: Query fold change permeability for CCSC(=N)N
Result: 1.1

Q: Quick one: give measured fold change permeability for OC[C@H]1O[C@H]([S-])[C@H](O)[C@@H](O)[C@@H]1O.[Au+]
Result: 1.5

* * *

TEST: compounds altering in vitro BBB leakiness – cell-based, FITC-avidin fluorescence, HTS, primary screen (AID 1963498); also: test concentration not given here
CONDITIONS_USED: brain endothelial barrier, actives lie on both sides
The source made the active and inactive calls. Cut-off read from the data, not from the text of the source: active = fold change permeability below about 0.7 or above about 1.3; inactive = in between.
The reply should be one of these categories: 1 (yes) for active, 0 (no) for inactive

CN(C)CCCC1(c2ccc(F)cc2)OCc2cc(C#N)ccc21 (stereo unspecified)	0 (no)
O=[N+]([O-])c1ccc(CNc2nc(NCc3cccc(C(F)(F)F)c3)nc3nc[nH]c23)cc1	1 (yes)
Nc1nc(N)c2nc(CNc3ccc(C(=O)N[C@@H](CCC(=O)O)C(=O)O)cc3)cnc2n1	0 (no)
C[C@@](Cc1ccc(O)c(O)c1)(NN)C(=O)O	0 (no)
O=c1[nH]c2cc(C(F)(F)F)ccc2n1-c1cc(C(F)(F)F)ccc1O	1 (yes)
CCN[C@H]1CN(CCCOC)S(=O)(=O)c2sc(S(N)(=O)=O)cc21	1 (yes)

Q: Hello, I am checking results. What call was entered for Nc1nc2[nH]cc(CCc3ccc(C(=O)N[C@@H](CCC(=O)O)C(=O)O)cc3)c2c(=O)[nH]1 ?
Result: 0 (no)

Q: State the result this test recorded for NC(N)=N/N=C/c1c(Cl)cccc1Cl .
Result: 0 (no)

Q: For COc1cc(CNC(=O)CCCCCCC(C)C)ccc1O , what call appears in the results of this test?
Result: 1 (yes)

Q: For CNCCC=C1c2ccccc2CCc2ccccc21 , which call appears in the assay record?
Result: 0 (no)

Q: Give the logged outcome of this assay for the following compound: NC(=Nc1ccccc1)NC(=O)c1nc(Cl)c(N)nc1N
Result: 0 (no)

* * *

TEST: compounds altering in vitro BBB leakiness – cell-based, FITC-avidin fluorescence, HTS, primary screen (AID 1963498); also: test concentration not given here
CONDITIONS_USED: brain endothelial barrier, actives lie on both sides
Listed next: entries and their corresponding fold change permeability.
Just the number, please, no unit after it.

CCc1ccc(OCC(=O)Nc2ccc(F)c([N+](=O)[O-])c2)cc1	1.1

Q: Give the value of fold change permeability reported for the following: NC(N)=NC(N)=Nc1ccccc1
Result: 0.9

Q: Determine from records and report fold change permeability for Nc1ccc(S(=O)(=O)Nc2ccnn2-c2ccccc2)cc1
Result: 1.2

Q: Supply measured fold change permeability of COc1cc(/C=C/C(=O)N2CCC=CC2=O)cc(OC)c1OC in your reply.
Result: 1

Q: For the compound CCN(CC)C(=O)c1ccc(O)c(OC)c1 , report fold change permeability.
Result: 0.8

Q: Specify fold change permeability for COc1ccccc1OCCNCC(O)COc1cccc2[nH]c3ccccc3c12 (stereo unspecified) and stop.
Result: 1.7

* * *

TEST: compounds altering in vitro BBB leakiness – cell-based, FITC-avidin fluorescence, HTS, primary screen (AID 1963498); also: test concentration not given here
CONDITIONS_USED: brain endothelial barrier, actives lie on both sides
RESULT_TYPE: fold change permeability
Enter a number only.

c1ccc(-c2cnn3cc(-c4ccc(OCCN5CCOCC5)cc4)cnc23)cc1	1.2
CC(=O)NCCc1c[nH]c2ccc(O)cc12	1.1
O=C(O)C1=CCNCC1	1
COc1cc(/C=C/C(=O)N2CCN(CC(=O)N3CCCC3)CC2)cc(OC)c1OC	1
CC(C)C[C@H]1C(=O)N2CCC[C@H]2[C@]2(O)O[C@](NC(=O)[C@@H]3C=C4c5cccc6[nH]c(Br)c(c56)C[C@H]4N(C)C3)(C(C)C)C(=O)N12	1.1
CN=C(N)NCCC[C@H](N)C(=O)O	0.8
CNS(=O)(=O)CCc1ccc2[nH]cc(C3CCN(C)CC3)c2c1	1
C[C@@H](c1nc(-c2ccc(C#N)cc2)cs1)[C@](O)(Cn1cncn1)c1cc(F)ccc1F	1.2

Q: Identify measured fold change permeability corresponding to NCCS
Result: 0.9

Q: Please give measured fold change permeability of the following entry: c1ccc(C2CN3CCSC3=N2)cc1 (configuration not stated)
Result: 1

Q: Return fold change permeability for the following compound: O=C1NC(=O)C(c2ccccc2[N+](=O)[O-])=C1Nc1ccc(O)c(Cl)c1
Result: 1.4

Q: Please list fold change permeability recorded for the compound NC1(C(=O)O)CC1
Result: 0.9

Q: Dear colleague, please send me the reported fold change permeability for CN1CCC[C@@H]1CCO[C@](C)(c1ccccc1)c1ccc(Cl)cc1 when you can.
Result: 1.1

Data provenance: PubChem BioAssay
